- System: UACC-62 melanoma
- Assay info: NCI tumour cell line growth inhibition, 48 h
Readout: TGI

Task: Give the measured TGI for CCOC(=O)/C(=C\c1cn(C(C)=O)c2ccccc12)P(C)(=O)OCC (configuration not stated)
Output: > 100 µM

Task: Fill in TGI for record C1C[OH+]CCNCC[OH+]CC[OH+]CCN1.N.[Cl-].[Pt+4]
Output: > 100 µM

Task: Quick one: give measured TGI for [Co].[O-]c1cccnc1C=Nc1ccccc1.[OH3+]
Output: > 100 µM

Task: Supply TGI value. Item: CS(=O)(=O)NNS(=O)(=O)c1ccc(F)cc1
Output: > 100 µM

Task: Let me know recorded TGI for CN=C1CN=C(OP(=O)(N2CCOCC2)N2CCOCC2)c2cc(Cl)ccc2N1 , thanks.
Output: > 100 µM

Task: For the molecule O=C(O[C@H]1[C@@H]2C=CO[C@@H](OC3OC(CO)C(O)C(O)C3O)[C@@H]2[C@@]2(CO)O[C@@H]12)c1ccc(O)c(O)c1 (some centres not stated) , report TGI.
Output: > 100 µM
